pIC50: −log10 of the molar value.
For reference, pIC50 measured on HIV-1 protease (Human immunodeficiency virus type 1 group M subtype B):

| substance smiles | target or system | pIC50 |
| --- | --- | --- |
| CC(C)C[C@@H]1NC(=O)C=C1N1CC[C@H](N2C(=O)C=C(OC(C)(C)C)[C@@H]2C)C1 | HIV-1 protease (Human immunodeficiency virus type 1 group M subtype B) | 3.75 |
| CC(C)C[C@H]1C(N2CC[C@H](N3C(=O)C=C(OC(C)(C)C)[C@@H]3C)C2)=CC(=O)N1[C@H]1CCN(C2=CC(=O)N[C@H]2Cc2ccccc2)C1 | HIV-1 protease (Human immunodeficiency virus type 1 group M subtype B) | 4.26 |
| CC(C)C[C@H]1C(N2CC[C@H](N3C(=O)CC(=O)[C@@H]3C)C2)=CC(=O)N1[C@H]1CCN(C2=CC(=O)N[C@H]2Cc2ccccc2)C1 | HIV-1 protease (Human immunodeficiency virus type 1 group M subtype B) | 4.33 |
